These measurements were taken from ChEMBL document CHEMBL3120100.

Assay: Antioxidant activity assessed as trolox equivalent of APPH-induced peroxyl radical scavenging activity measured every 2 mins by ORAC fluorescence assay
Type: functional
readoutType: Activity

// worked examples, Activity included
>  <compound>
Oc1ccc([C@@]23Oc4cc(O)cc(O)c4[C@@H](c4c(O)cc(O)c5c4O[C@H](c4ccc(O)c(O)c4)[C@H](O)C5)[C@@H]2O3)cc1

>  <readoutType>
Activity

>  <result>
Dose-dependent effect

$$$$
>  <compound>
O=c1c(O[C@@H]2O[C@H](CO)[C@@H](O)[C@H](O)[C@H]2O)c(-c2ccc(O)c(O)c2)oc2cc(O)cc(O)c12

>  <readoutType>
Activity

>  <result>
Dose-dependent effect

$$$$
>  <compound>
C[C@@H]1O[C@@H](O[C@H]2[C@H](Oc3c(-c4ccc(O)c(O)c4)oc4cc(O)cc(O)c4c3=O)O[C@H](CO)[C@H](O)[C@@H]2O)[C@H](O)[C@H](O)[C@H]1O

>  <readoutType>
Activity

>  <result>
Dose-dependent effect

$$$$
>  <compound>
Oc1cc(O)c2c(c1)O[C@@]1(c3ccc(O)c(O)c3)O[C@H]1[C@@H]2c1c(O)cc(O)c2c1O[C@H](c1ccc(O)c(O)c1)[C@H](O)C2

>  <readoutType>
Activity

>  <result>
Dose-dependent effect

$$$$
>  <compound>
Oc1cc(O)c2c(c1)O[C@H](c1ccc(O)c(O)c1)[C@H](O)C2 [(-)-EPICATECHIN]

>  <readoutType>
Activity

>  <result>
Dose-dependent effect

$$$$

Moving on to the next compound.
Answer with the recorded Activity of C[C@@H]1O[C@@H](OC[C@H]2O[C@@H](Oc3c(-c4ccc(O)c(O)c4)oc4cc(O)cc(O)c4c3=O)[C@H](O)[C@@H](O)[C@@H]2O)[C@H](O)[C@H](O)[C@H]1O only. Dose-dependent effect

----------
Test: Antiosteoporotic activity in alpha-MEM-induced C57BL/6 mouse MC3T3-E1 cells assessed as increase in mineralization by measuring calcium deposition at 5 uM by Alizarin Red staining assay relative to control
Format: functional
readoutType: Activity (%)
Numbers only; they are read as %.

// worked examples, Activity included
>  <compound>
Oc1cc(O)c2c(c1)O[C@@]1(c3ccc(O)c(O)c3)O[C@H]1[C@@H]2c1c(O)cc(O)c2c1O[C@H](c1ccc(O)c(O)c1)[C@H](O)C2

>  <valueUnit>
%

>  <Activity>
109.85

$$$$
>  <compound>
C[C@@H]1O[C@@H](OC[C@H]2O[C@@H](Oc3c(-c4ccc(O)c(O)c4)oc4cc(O)cc(O)c4c3=O)[C@H](O)[C@@H](O)[C@@H]2O)[C@H](O)[C@H](O)[C@H]1O

>  <valueUnit>
%

>  <Activity>
103.24

$$$$
>  <compound>
Oc1cc(O)c2c(c1)O[C@H](c1ccc(O)c(O)c1)[C@H](O)C2 [(-)-EPICATECHIN]

>  <valueUnit>
%

>  <Activity>
111.92

$$$$
>  <compound>
O=c1c(O[C@@H]2O[C@H](CO)[C@@H](O)[C@H](O)[C@H]2O)c(-c2ccc(O)c(O)c2)oc2cc(O)cc(O)c12

>  <valueUnit>
%

>  <Activity>
107.58

$$$$
>  <compound>
Oc1ccc([C@@]23Oc4cc(O)cc(O)c4[C@@H](c4c(O)cc(O)c5c4O[C@H](c4ccc(O)c(O)c4)[C@H](O)C5)[C@@H]2O3)cc1

>  <valueUnit>
%

>  <Activity>
89.84

$$$$

Moving on to the next compound.
Answer with the recorded Activity of C[C@@H]1O[C@@H](O[C@H]2[C@H](Oc3c(-c4ccc(O)c(O)c4)oc4cc(O)cc(O)c4c3=O)O[C@H](CO)[C@H](O)[C@@H]2O)[C@H](O)[C@H](O)[C@H]1O only. 104.72

----------
Assay: Antioxidant activity assessed as trolox equivalent of APPH-induced peroxyl radical scavenging activity at 1 uM measured every 2 mins by ORAC fluorescence assay
Type: functional
Parameter Activity: see the listing below.
Numbers only; they are read as µM.

// worked examples, Activity included
>  <compound>
Oc1ccc([C@@]23Oc4cc(O)cc(O)c4[C@@H](c4c(O)cc(O)c5c4O[C@H](c4ccc(O)c(O)c4)[C@H](O)C5)[C@@H]2O3)cc1

>  <valueUnit>
µM

>  <Activity>
5.42

$$$$
>  <compound>
O=c1c(O[C@@H]2O[C@H](CO)[C@@H](O)[C@H](O)[C@H]2O)c(-c2ccc(O)c(O)c2)oc2cc(O)cc(O)c12 [ISOQUERCETIN]

>  <valueUnit>
µM

>  <Activity>
4.4

$$$$
>  <compound>
Oc1cc(O)c2c(c1)O[C@H](c1ccc(O)c(O)c1)[C@H](O)C2 [(-)-EPICATECHIN]

>  <valueUnit>
µM

>  <Activity>
4.49

$$$$
>  <compound>
C[C@@H]1O[C@@H](OC[C@H]2O[C@@H](Oc3c(-c4ccc(O)c(O)c4)oc4cc(O)cc(O)c4c3=O)[C@H](O)[C@@H](O)[C@@H]2O)[C@H](O)[C@H](O)[C@H]1O [RUTIN]

>  <valueUnit>
µM

>  <Activity>
3.78

$$$$
>  <compound>
Oc1cc(O)c2c(c1)O[C@@]1(c3ccc(O)c(O)c3)O[C@H]1[C@@H]2c1c(O)cc(O)c2c1O[C@H](c1ccc(O)c(O)c1)[C@H](O)C2

>  <valueUnit>
µM

>  <Activity>
5.22

$$$$

Answer with the recorded Activity of C[C@@H]1O[C@@H](O[C@H]2[C@H](Oc3c(-c4ccc(O)c(O)c4)oc4cc(O)cc(O)c4c3=O)O[C@H](CO)[C@H](O)[C@@H]2O)[C@H](O)[C@H](O)[C@H]1O only. 3.36

----------
Parameter TRAP activity (% of control): see the listing below.
Target: Tartrate-resistant acid phosphatase type 5 (Mus musculus) (UniProt Q05117)
Experiment: Inhibition of TRAP activity in RANKL-induced Balb/c mouse RAW264.7 cells at 10 uM after 1 hr by ELISA relative to control
Assay type: cell-based
Numbers only; they are read as %.

// worked examples, TRAP activity (% of control) included
>  <compound>
Oc1cc(O)c2c(c1)O[C@H](c1ccc(O)c(O)c1)[C@H](O)C2 [(-)-EPICATECHIN]

>  <TRAP activity (% of control) / %>
84

$$$$
>  <compound>
Oc1ccc([C@@]23Oc4cc(O)cc(O)c4[C@@H](c4c(O)cc(O)c5c4O[C@H](c4ccc(O)c(O)c4)[C@H](O)C5)[C@@H]2O3)cc1

>  <TRAP activity (% of control) / %>
85.6

$$$$
>  <compound>
C[C@@H]1O[C@@H](OC[C@H]2O[C@@H](Oc3c(-c4ccc(O)c(O)c4)oc4cc(O)cc(O)c4c3=O)[C@H](O)[C@@H](O)[C@@H]2O)[C@H](O)[C@H](O)[C@H]1O [RUTIN]

>  <TRAP activity (% of control) / %>
71.7

$$$$
>  <compound>
C[C@@H]1O[C@@H](O[C@H]2[C@H](Oc3c(-c4ccc(O)c(O)c4)oc4cc(O)cc(O)c4c3=O)O[C@H](CO)[C@H](O)[C@@H]2O)[C@H](O)[C@H](O)[C@H]1O

>  <TRAP activity (% of control) / %>
128

$$$$
>  <compound>
O=c1c(O[C@@H]2O[C@H](CO)[C@@H](O)[C@H](O)[C@H]2O)c(-c2ccc(O)c(O)c2)oc2cc(O)cc(O)c12 [ISOQUERCETIN]

>  <TRAP activity (% of control) / %>
82.9

$$$$

Moving on to the next compound.
Answer with the recorded TRAP activity (% of control) of Oc1cc(O)c2c(c1)O[C@@]1(c3ccc(O)c(O)c3)O[C@H]1[C@@H]2c1c(O)cc(O)c2c1O[C@H](c1ccc(O)c(O)c1)[C@H](O)C2 only. 107

----------
Parameter inhibition: see the listing below.
Target: Tartrate-resistant acid phosphatase type 5 (Mus musculus)
Sequence (whole entry): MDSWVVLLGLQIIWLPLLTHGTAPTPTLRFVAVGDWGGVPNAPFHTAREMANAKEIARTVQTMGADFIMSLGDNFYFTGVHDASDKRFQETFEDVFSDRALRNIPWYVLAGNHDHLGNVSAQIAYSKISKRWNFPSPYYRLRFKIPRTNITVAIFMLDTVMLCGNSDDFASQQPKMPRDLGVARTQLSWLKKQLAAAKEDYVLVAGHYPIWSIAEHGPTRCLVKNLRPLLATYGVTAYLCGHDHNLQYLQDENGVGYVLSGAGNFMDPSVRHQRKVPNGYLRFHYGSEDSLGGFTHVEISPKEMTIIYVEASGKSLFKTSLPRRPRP
Test: Inhibition of TRAP activity in RANKL-induced Balb/c mouse RAW264.7 cells at 1 uM after 1 hr by ELISA relative to control
Format: cell-based
Numbers only; they are read as %.

// worked examples, inhibition included
>  <molecule>
Oc1cc(O)c2c(c1)O[C@@]1(c3ccc(O)c(O)c3)O[C@H]1[C@@H]2c1c(O)cc(O)c2c1O[C@H](c1ccc(O)c(O)c1)[C@H](O)C2

>  <valueUnit>
%

>  <inhibition>
98

$$$$
>  <molecule>
O=c1c(O[C@@H]2O[C@H](CO)[C@@H](O)[C@H](O)[C@H]2O)c(-c2ccc(O)c(O)c2)oc2cc(O)cc(O)c12 [ISOQUERCETIN]

>  <valueUnit>
%

>  <inhibition>
76.6

$$$$

Answer with the recorded inhibition of C[C@@H]1O[C@@H](O[C@H]2[C@H](Oc3c(-c4ccc(O)c(O)c4)oc4cc(O)cc(O)c4c3=O)O[C@H](CO)[C@H](O)[C@@H]2O)[C@H](O)[C@H](O)[C@H]1O only. 101

Answer with the recorded inhibition of Oc1cc(O)c2c(c1)O[C@H](c1ccc(O)c(O)c1)[C@H](O)C2 [(-)-EPICATECHIN] only. 78.3

Answer with the recorded inhibition of Oc1ccc([C@@]23Oc4cc(O)cc(O)c4[C@@H](c4c(O)cc(O)c5c4O[C@H](c4ccc(O)c(O)c4)[C@H](O)C5)[C@@H]2O3)cc1 only. 78.5

Answer with the recorded inhibition of C[C@@H]1O[C@@H](OC[C@H]2O[C@@H](Oc3c(-c4ccc(O)c(O)c4)oc4cc(O)cc(O)c4c3=O)[C@H](O)[C@@H](O)[C@@H]2O)[C@H](O)[C@H](O)[C@H]1O [RUTIN] only. 78
